FYI, the data here is from PubChem BioAssay.

experimental-details: inhibitors of TNFa-induced NFkB p65 translocation, primary screen, imaging, HUVEC, MLSMR starter and 10KST1 sets (AID 438);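 further: compound added about 3h40 before a 20 min TNFalpha stimulation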
condition-details: HUVEC TNFa-induced p65 nuclear translocation; measured here: nuclei count (cytotoxicity indicator), at 2.08 µM
recorded-endpoint: cell count

ClC(Br)=C(n1cnc2ccccc21)n1cnc2ccccc21: 536
O=C(O)CCCC(=O)Nc1ccn(-c2ccccc2)n1: 639
CCC(C)n1ncn(-c2ccc(N3CCN(c4ccc(OCC5COC(Cn6cncn6)(c6ccc(Cl)cc6Cl)O5)cc4)CC3)cc2)c1=O (stereo unspecified): 587
c1ccc(N2CCN(c3nc(-c4ccccn4)nc4ccccc34)CC2)cc1: 493
CCOC(=O)c1cnc(SC2CC(=O)N(c3cccc(OC)c3)C2=O)nc1N (stereo unspecified): 591
Cc1cc(C)c(-n2c(O)c(C=NCCN3CCOCC3)c(=O)[nH]c2=O)c(C)c1: 594
CN1CCc2c(sc3c2c(=O)n(-c2ccccc2)c2nnc(SCc4ccccc4)n32)C1: 562
COCCCNC(=O)c1c(N)n(/N=C/c2cccs2)c2nc3ccccc3nc12: 342
NS(=O)(=O)c1cc2c(cc1Cl)NC=NS2(=O)=O: 531
CC(C)c1nc2n[nH]c(N)c2c2c1CCC2: 359
COc1ccc2c(c1OC)C(=O)N1c3ccccc3SC21 (stereo unspecified): 540
Cc1cc(N2C(=O)C(=O)/C(=C(/O)c3ccccc3)C2c2cccc(Br)c2)no1 (stereo unspecified): 298
CC1(C)Cc2c(C#N)c(N3CCOCC3)nc(-c3ccccc3)c2CO1: 600
COc1ccc(C(=O)Cn2c(Br)nc3c2c(=O)n(C)c(=O)n3C)cc1OC: 296
CC(C)(C)NCC(O)c1cc(O)cc(O)c1 (stereo unspecified): 472
O=C(c1ccc(F)cc1)N1CCC(N2CCCCCC2)CC1: 392
Cc1cc(=O)n2[nH]cnc2n1: 517
CC1(C)Cc2c(c(N3CCOCC3)nc3snc(N)c23)CO1: 554
C[C@]12CC[C@H]3[C@@H](CCC4=CC(=O)CC[C@@]43C)[C@@H]1CC[C@@H]2C(=O)CO: 632
COc1cc(-c2nn3c(-c4ccccn4)nnc3s2)cc(OC)c1OC: 600
CC[C@H]1OC(=O)C[C@@H](O)[C@H](C)[C@@H](O[C@@H]2O[C@H](C)C[C@H](N(C)C)[C@H]2O)[C@@H](CC=O)C[C@@H](C)C(=O)C=C[C@]2(C)O[C@H]2[C@@H]1C: 610

###

experimental-details: DUSP6 inhibitors restoring Erk phosphorylation by chemical complementation, primary imaging in DUSP6-transfected HeLa (AID 609)
condition-details: HeLa MKP-3 transfected, phospho-Erk imaging KS statistic; measured here: cell density z-score; at 10 µM; cells stimulated with TPA for 15 min
Measured z-score, listed per entry for reference.
recorded-endpoint: z-score

CC(=O)c1ccc(O)c(CO)c1: -0.0166
COc1ccc(C(=O)Cn2c(N3CCCCC3)nc3c2c(=O)n(C)c(=O)n3C)cc1OC: -0.186
COc1ccccc1N1CCN(C(=O)c2c(C)cc(=O)oc2C)CC1: -0.53
NC(=O)CSc1c[nH]c2ccccc12: -1.08
C/C=C/c1ccccc1OCc1ccc(C(=O)O)o1: -2.68
CC1(C)S[C@@H]2[C@H](NC(=O)[C@H](C(=O)O)c3ccsc3)C(=O)N2[C@H]1C(=O)O: -1.03
N#CC(C(=O)NC1CC1)c1nc2ccccc2nc1N1CCN(C/C=C/c2ccccc2)CC1 (configuration not stated): -0.376

###

experimental-details: inhibitors of larval lipid processing in zebrafish, primary screen, whole organism, PED6 fluorescence, gall bladder and intestine (AID 686);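 further: larvae 5 to 7 days old with five fish per well; signal comes from phospholipase A2 cleavage of quenched PED6 carried via bile; overnight exposure to compound and PED6 before scoring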
condition-details: Zebrafish larvae PED6 lipid processing, fluorescence scoring; screened at 20 µM (by protocol)
Activity calls are given as the source filed them.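 The calls were made as follows: active = a full or partial loss of lipid-probe fluorescence in the fish gall bladder, intestine or both, judged by eye; inactive = no fluorescence loss, or compound toxic to the fish.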
Classes used: YES = active, NO = inactive

COc1ccc(-c2nn3c(-c4ccccn4)nnc3s2)cc1OC: NO
CC(=O)OC(C)C[N+](C)(C)C (centres undefined): NO
CO[C@H]1C[C@@H]2CC[C@@H](C)[C@@](O)(O2)C(=O)C(=O)N2CCCC[C@H]2C(=O)O[C@H]([C@H](C)C[C@@H]2CC[C@@H](O)[C@H](OC)C2)CC(=O)[C@H](C)C=C(C)[C@@H](O)[C@@H](OC)C(=O)[C@H](C)C[C@H](C)C=CC=CC=C1C: NO
Cc1cc(C)n(S(=O)(=O)Cc2ccccc2)n1: NO
COC(=O)CN(c1nc(C)c(Cl)c(OC)n1)S(=O)(=O)c1ccc(C)cc1: NO
Cc1nnc2n(-c3ccccc3)c(=O)c3c4c(sc3n12)COC(C(C)C)C4 (centres undefined): NO
Fc1ccc(C2C3=C(Nc4ncnn42)c2ccccc2OC3c2ccncc2)cc1 (centres undefined): NO
Cc1ccc2[nH]c3c(N4CCCCCC4)ncnc3c2c1: NO
NS(=O)(=O)c1cc2c(cc1Cl)NC(C(Cl)Cl)NS2(=O)=O (centres undefined): NO
Cn1c(=NCC(O)COc2ccccc2)sc2ccccc21 (centres undefined): NO
N#CC(C(=O)NC1CC1)c1nc2ccccc2nc1N1CCN(C/C=C/c2ccccc2)CC1 (centres undefined): NO
COCCc1ccc(OCC(O)CNC(C)C)cc1 (centres undefined): NO
COc1ccc(/C(O)=C2/C(=O)C(=O)N(CCN(C)C)C2c2ccccn2)cc1OC (centres undefined): NO
Cc1csc(NC(=O)CSc2nsc(SCC(=O)Nc3nc(C)cs3)c2C#N)n1: NO
COC(=O)/C(=C1/Oc2cc(C)oc(=O)c2S1)C(F)(F)F: NO
Cn1c(-n2c(-c3ccco3)nc3ccccc3c2=O)nc2ccccc21: NO
CCOC(=O)c1c(CN2CCCCC2)oc2ccc(OC)cc12: NO
CCOC(=O)c1ccc(N=Cc2nc(-c3ccccc3)oc2OC(C)=O)cc1: NO
N#CCSc1nc2sc3c(c2c(=O)n1C1CCCCC1)CCCC3: NO
COc1nc(N(C)S(=O)(=O)c2ccc(C)cc2)nc(C)c1Cl: NO
CCC(C(=O)OCCN(CC)CC)c1ccccc1 (centres undefined): NO
N#Cc1nc(-c2ccc(Cl)cc2)oc1N1CCCCC1: NO
CN(C)[C@@H]1C(=O)C(C(N)=O)=C(O)[C@@]2(O)C(=O)C3=C(O)c4c(O)ccc(Cl)c4[C@@H](O)[C@H]3C[C@@H]12: YES
C#CCSC1=C(C#N)C(c2cccs2)C(C(=O)OCC)=C(C)N1 (centres undefined): NO
COC(=O)c1[nH]c2cc(OC)ccc2c1NC(=O)CCN1CCCC(C)(C)C1: NO
CC1CCN(c2oc(-c3ccccc3Cl)nc2C#N)CC1: NO
O=C(N(c1ccccc1)c1ccccc1)n1ccnc1: NO
C=CCOc1nc2c(c(=O)n(C)c(=O)n2C)n1Cc1c(Cl)cccc1Cl: NO
NS(=O)(=O)c1cc2c(cc1C(F)(F)F)NC(Cc1ccccc1)NS2(=O)=O (centres undefined): NO
CC1(C)Nc2ccc(O)cc2-c2c1ssc2=S: NO
CCOc1cccc(-c2nnc3sc(-c4ccc(C)cc4)nn23)c1: NO
COc1ccccc1NC(=O)C1=C(C)NC(SCC(=O)c2ccc(C)cc2)=C(C#N)C1c1ccco1 (centres undefined): NO
C=CCc1ccccc1OCC(O)CNC(C)C (centres undefined): NO
CCc1ccccc1NC(=O)CSC1=C(C#N)C(c2ccc(O)c(OC)c2)C2=C(CCCC2=O)N1 (centres undefined): NO
COC(=O)c1ccc(C2NC(C(=O)O)CS2)cc1 (centres undefined): NO
Cc1nc2sc3c(NCc4ccco4)ncnc3c2c2c1COC(C)(C)C2: NO
CCOCCN(C(=O)COC)c1cccc(OC)c1: NO
CCOC(=O)CSc1nc(N(C)C)nc(N(C)C#N)n1: NO
CCCCOc1ccc(C(=O)Nc2ccc(N3CCN(C(C)=O)CC3)cc2)cc1: NO

###

measurement-target: Voltage-gated potassium channel subunit beta-2 (Rattus norvegicus) (UniProt P62483)
Sequence (P62483 whole entry, looked up): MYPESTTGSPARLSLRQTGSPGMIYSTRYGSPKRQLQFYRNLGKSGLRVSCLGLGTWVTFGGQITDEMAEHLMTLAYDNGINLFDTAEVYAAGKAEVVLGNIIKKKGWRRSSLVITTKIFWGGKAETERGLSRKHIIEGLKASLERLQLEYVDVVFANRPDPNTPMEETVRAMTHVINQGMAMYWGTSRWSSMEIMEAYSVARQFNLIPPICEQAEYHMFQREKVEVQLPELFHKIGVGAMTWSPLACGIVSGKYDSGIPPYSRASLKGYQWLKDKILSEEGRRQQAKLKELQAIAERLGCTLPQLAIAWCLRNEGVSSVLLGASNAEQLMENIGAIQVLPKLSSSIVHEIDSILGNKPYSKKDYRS
experimental-details: KvBeta enzyme negative modulators, primary screen, biochemical, NADPH fluorescence (AID 622);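 further: slope of raw intensity against log time taken from 70 to 1610 s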
condition-details: recombinant KvBeta, 4-cyanobenzaldehyde reduction, at 10 µM, stronger effect = higher value
recorded-endpoint: fluorescence slope

CC1(C)CC(=O)C=C(NCc2ccncc2)C1: -0.497
c1coc(-c2nnc3sc(Cc4cccs4)nn23)c1: -0.5
O=C(O)C1CCCCN1S(=O)(=O)c1cccc2nsnc12 (stereo not drawn): -0.498

###

Reported cell count by item:
experimental-details: inhibitors of TNFa-induced NFkB p65 translocation, primary screen, imaging, HUVEC, MLSMR starter and 10KST1 sets (AID 438);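 further: compound added about 3h40 before a 20 min TNFalpha stimulation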
condition-details: HUVEC TNFa-induced p65 nuclear translocation; measured here: nuclei count (cytotoxicity indicator), at 2.08 µM
recorded-endpoint: cell count

O=C(O)c1c[nH]c2ccc(S(=O)(=O)N3CCOCC3)cc12: 597
CN(C)c1ccc(-c2nn3c(-c4ccc(Cl)cc4)nnc3s2)cc1: 615
Cc1cc(C)n(S(=O)(=O)Cc2ccccc2)n1: 495
Cc1nnc2n(-c3ccccc3)c(=O)c3c4c(sc3n12)CC(C)CC4 (configuration not stated): 573
N#CC1(c2ccccc2)CCC(=NO)CC1 (configuration not stated): 685
N#CCCSCc1ccc(OCC(=O)O)cc1: 547
CCN1CCN(c2nc3c(C)cccn3c(=O)c2/C=C(\C#N)S(=O)(=O)c2ccccc2)CC1: 501
COc1ccc(-c2cn3ccsc3n2)cc1: 536
COc1ccc2c(C)nc(Nc3nc(C)cc(C)n3)nc2c1: 644
CCOc1nc(SCCOc2ccccc2)nc(N(C)C)n1: 397
CCOC(=O)c1oc2cc(O)cc(C)c2c(=O)c1-c1cscn1: 583
COc1ccc(Cn2c(O)cc(=O)[nH]c2=O)cc1: 518
N#Cc1nc(-c2cccs2)oc1NCCc1ccccc1: 421
Nc1nnc(Cc2ccc(Cl)c(Cl)c2)s1: 621
CN1CCC(=C2c3ccccc3C=Cc3ccccc32)CC1: 599
CC(C)C1Cc2c(sc3c2c(=O)n(Cc2ccccc2)c2nncn32)CO1 (configuration not stated): 557
CCOc1ccc(-n2c3nc4ccccc4nc3c3c(=O)n(Cc4ccco4)cnc32)cc1: 381
CCOC(=O)CC1=C(C(=O)OCC)C(c2ccc(OC)c(OC)c2)C(C#N)=C(N)O1 (configuration not stated): 471
COC(=O)c1cc(Br)c(=O)n(Cc2cccnc2)c1: 578
CCCCCSc1nc(O)cc(=O)[nH]1: 366
CCCOc1cccc(C2/C(=C(/O)c3ccccc3)C(=O)C(=O)N2CCN(C)C)c1 (configuration not stated): 511
Cc1cccc(C)c1N1C(=O)C2ON(c3ccccc3)C(c3ccncc3)C2C1=O (configuration not stated): 382
CCCCOc1ccc(C(=O)Nc2ccc(N3CCN(C(C)=O)CC3)cc2)cc1: 490
CC1(C)CC(=O)C(CCCN2C(=O)c3ccccc3C2=O)C(=O)C1: 527
CCCC(=O)Nc1sc2c(c1C#N)CCCC2: 385
CCCOC(=O)CSC1=C(C#N)C(c2ccccc2OCC)C(C#N)C(=O)N1 (configuration not stated): 487
COCc1[nH]nc2c1C(c1ccnc3ccccc13)C(C#N)=C(N)O2 (configuration not stated): 589
